Tested on: Vero E6 infected with SARS-CoV-2
MEASUREMENT_PROTOCOL: inhibition of SARS-CoV-2 cytopathic effect; higher = more antiviral protection, active = above 15
TEST_CONTEXT: 8.33 nM; 48 h
Could you please report measured inhibition of SARS-CoV-2 cytopathic effect for the items listed next?
Give bare numbers, in %.

Dear colleague, could you send me inhibition of SARS-CoV-2 cytopathic effect for each of the items below? Thanks.
1. CN(C)Cc1cccc(N/C(=C2\C(=O)Nc3cc(C(N)=O)ccc32)c2ccccc2)c1
2. Cc1ccc(C(=O)c2cc(O)c(O)c([N+](=O)[O-])c2)cc1
3. O=C(O)CC[C@H]1CC[C@@](c2cc(F)ccc2F)(S(=O)(=O)c2ccc(Cl)cc2)CC1
4. C=CCN1CCc2nc(N)sc2CC1 [talipexole]
5. CCC(=O)O[C@@H](O[P@@](=O)(CCCCc1ccccc1)CC(=O)N1C[C@H](C2CCCCC2)C[C@H]1C(=O)O)C(C)C
6. CC(C)C(=O)Nc1ncc(-c2cc(C(F)F)nn2-c2c(Cl)cccc2Cl)s1

a:
1: 2.55; 2: -3.82; 3: -0.66; 4: 1.41; 5: 0.8; 6: 2.58

Dear colleague, could you send me inhibition of SARS-CoV-2 cytopathic effect for each of the items below? Thanks.
1. Cc1cccc(-c2[nH]c(C(C)(C)C)nc2-c2ccc3nccnc3c2)n1
2. CCOc1cc2ncc(C#N)c(Nc3ccc(OCc4cccc(F)c4)c(Cl)c3)c2cc1NC(=O)/C=C/CN(C)C
3. CCNC(=O)c1n[nH]c(-c2cc(Cl)c(O)cc2O)c1-c1ccc(OC)cc1
4. CCc1ccc(C2=CC(C)(C)Sc3ccc(C#Cc4ccc(C(=O)O)cc4)cc32)cc1
5. CCOC(=O)C1=CCCC[C@H]1S(=O)(=O)Nc1ccc(F)cc1Cl
6. Cc1ccc(C(=O)Nc2ccc(CN3CCN(C)CC3)c(C(F)(F)F)c2)cc1C#Cc1cnc2cccnn12

a:
-0.18
-3.51
-4.15
2.14
1.54
1.8

q: Give recorded inhibition of SARS-CoV-2 cytopathic effect. CCn1c(=O)c(-c2ccc(Cl)cc2Cl)cc2cnc(Nc3ccc(N4CCNCC4)c(F)c3)nc21
a: -2.53

---

Could you please report measured inhibition of SARS-CoV-2 cytopathic effect for the items listed next?
System: Vero E6 infected with SARS-CoV-2
MEASUREMENT_PROTOCOL: inhibition of SARS-CoV-2 cytopathic effect; higher = more antiviral protection, active = above 15
TEST_CONTEXT: 1 nM; 48 h
Give bare numbers, in %.

Field: example entries. Status: answers known.
| MOLECULE | READING_UNIT | OBSERVED_RESULT |
| --- | --- | --- |
| CC(=O)NCC(=O)N[C@H](CCC(=O)O)C(=O)O | % | 1.3 |
| O=C(NC1CCN(CCCCC2(C(=O)NCC(F)(F)F)c3ccccc3-c3ccccc32)CC1)c1ccccc1-c1ccc(C(F)(F)F)cc1 [lomitapide] | % | 0.13 |
| CN(C)CC/C=C1/c2ccccc2COc2ccccc21 [doxepin] | % | -0.79 |

# ---- query molecule ----
q: Give recorded inhibition of SARS-CoV-2 cytopathic effect. O=C1NN(C(=O)Nc2ccc(Br)cc2)[C@@H](c2ccccc2)[C@@H]1c1ccccc1
a: 0.57

---

Test system: Vero E6 infected with SARS-CoV-2
MEASUREMENT_PROTOCOL: inhibition of SARS-CoV-2 cytopathic effect; higher = more antiviral protection, active = above 15
TEST_CONTEXT: 8.33 nM; 48 h
MEASUREMENT_LABEL: inhibition of SARS-CoV-2 cytopathic effect (%)
Give bare numbers, in %.

Field: example entries. Status: answers known.
| COMPOUND | READING_UNIT | OBSERVED_RESULT |
| --- | --- | --- |
| O=C(CCCCCCC(=O)Nc1ccccc1)NO | % | 0.67 |
| O=C(Nc1cc(-c2ccccc2)nn1-c1ccccc1F)c1ccc([N+](=O)[O-])cc1 | % | 1.45 |
| O=c1[nH]ccc2cc(OC3CCNCC3)ccc12 | % | 0.89 |

Dear colleague, could you send me inhibition of SARS-CoV-2 cytopathic effect for each of the items below? Thanks.
1. CN1[C@@H]2CC[C@H]1C[C@@H](OC(=O)N1Cc3ccccc3NC1=O)C2
2. CO[C@H]1CC[C@@H](C(=O)c2ccc3nc4c(cc3c2)CCCO4)CC1
3. CC(C)(C)c1ccc(CN(Cc2cccc(OCC(=O)O)c2)S(=O)(=O)c2cccnc2)cc1

a:
[-0.87, 0.02, -0.63]

---

Tested on: Vero E6 infected with SARS-CoV-2
MEASUREMENT_PROTOCOL: inhibition of SARS-CoV-2 cytopathic effect; higher = more antiviral protection, active = above 15
TEST_CONTEXT: 100 nM; 48 h
MEASUREMENT_LABEL: inhibition of SARS-CoV-2 cytopathic effect (%)
Numbers only, in %.

Field: example entries. Status: answers known.
| COMPOUND | READING_UNIT | OBSERVED_RESULT |
| --- | --- | --- |
| Nc1nnc(-c2cccc(Cl)c2Cl)c(N)n1 | % | -1.73 |
| O=C(Nc1cccnn1)N1CCC(=Cc2cccc(Oc3ccc(C(F)(F)F)cn3)c2)CC1 | % | -0.76 |
| Cc1cc(Cn2nnc3c(-c4ccco4)nc(N)nc32)ccc1N | % | 2.73 |
| O[C@H]1CC[C@H](Nc2ncc3nc(Nc4c(F)cc(F)cc4F)n([C@H]4CCOC4)c3n2)CC1 | % | 0.98 |
| CCN(Cc1ccc(Cl)nc1)/C(=C/[N+](=O)[O-])NC | % | -0.29 |

Dear colleague, could you send me inhibition of SARS-CoV-2 cytopathic effect for each of the items below? Thanks.
1. CC(=O)N(c1onc(C)c1C)S(=O)(=O)c1ccc(N)cc1
2. Cc1ccc2c(=O)c3ccccc3n(CCCN)c2c1C
3. CN(C(=O)/C=C/c1ccoc1)[C@@H]1CC[C@@]2(O)[C@H]3Cc4ccc(O)c5c4[C@@]2(CCN3CC2CC2)[C@H]1O5
4. OC[C@H]1O[C@@H](Oc2cc(O)cc(/C=C/c3ccc(O)cc3)c2)[C@H](O)[C@@H](O)[C@@H]1O
5. N#Cc1cc(F)cc(-c2nc(-c3ccc(F)cn3)no2)c1
6. COc1cc(N)c(Cl)cc1C(=O)CCC1CCN(CCNS(C)(=O)=O)CC1

a:
1: -3.58; 2: -0.41; 3: 0.43; 4: 1.77; 5: 1.15; 6: 0.79

Dear colleague, could you send me inhibition of SARS-CoV-2 cytopathic effect for each of the items below? Thanks.
1. CCN1CCCC(OC(=O)C(c2ccccc2)c2ccccc2)C1 (stereo not given) [piperidolate]
2. N=C1N[C@H]2[C@H](CS[C@H]2CCCCC(=O)O)N1

a:
[-7.85, -1.14]

---

Tested on: Vero E6 infected with SARS-CoV-2
MEASUREMENT_PROTOCOL: inhibition of SARS-CoV-2 cytopathic effect; higher = more antiviral protection, active = above 15
TEST_CONTEXT: 8.33 nM; 48 h
Could you please report measured inhibition of SARS-CoV-2 cytopathic effect for the items listed next?
Numbers only, in %.

| COMPOUND | OBSERVED_RESULT |
| --- | --- |
| CC1(C)OC(=O)C(OCC2CC2)=C1c1ccc(S(C)(=O)=O)cc1 [firocoxib] | -1.5 |
| CNC(=O)N(C)N=O [nitrosodimethylurea] | -0.84 |
| Cn1c(=O)c(F)c(Nc2ccc(I)cc2F)c2c(=O)n(C[C@@H](O)CO)cnc21 | -6.23 |
| COC(=O)C1=CCCN(C)C1 [arecoline] | 1.95 |
| Cc1[nH]c(=O)c(C#N)cc1-c1ccncc1 [milrinone] | -2.54 |
| CC(=O)c1ccc2c(c1)N(CCCN1CCN(CCO)CC1)c1ccccc1S2 [acetophenazine] | 1.77 |
| NC[C@@](O)(c1ccc(Cl)cc1)c1ccc(-c2cn[nH]c2)cc1 | 1 |
| O=C(O)/C=C1\CCCc2ccccc2[C@H]1O (racemic) | 1.44 |

Dear colleague, could you send me inhibition of SARS-CoV-2 cytopathic effect for each of the items below? Thanks.
1. COc1cc(C[C@@H]2NCCc3cc(O)c(O)cc32)cc(OC)c1OC [trimethoquinol]
2. NCCCC[C@@H]1NC(=O)[C@@H](Cc2c[nH]c3ccccc23)NC(=O)[C@H](c2ccccc2)NC(=O)[C@@H]2C[C@@H](OC(=O)NCCN)CN2C(=O)[C@H](Cc2ccccc2)NC(=O)[C@H](Cc2ccc(OCc3ccccc3)cc2)NC1=O [pasireotide]
3. CNCCc1ccc(O)c(O)c1 [deoxyepinephrine]
4. O=C(c1ccc(C(=O)N2CCC(N3CCCC3)CC2)c(Nc2ccccc2)c1)N1CCC(N2CCCC2)CC1
5. Cn1cnc([N+](=O)[O-])c1Sc1ncnc2[nH]cnc12 [azathioprine]
6. CCOC(=O)[N-]c1c[n+](N2CCOCC2)no1 [molsidomine]
7. O=c1[nH]c(CCl)nc2sc3c(c12)CCCC3

a:
1: 0.73; 2: -8.12; 3: 2.29; 4: -1.56; 5: 2.21; 6: 1.12; 7: -1.84

Dear colleague, could you send me inhibition of SARS-CoV-2 cytopathic effect for each of the items below? Thanks.
1. Cc1ccc2c(=O)c3cccc(CC(=O)O)c3oc2c1C
2. CN(Cc1cnc2nc(N)nc(N)c2n1)c1ccc(C(=O)N[C@@H](CCC(=O)O)C(=O)O)cc1 [methotrexate]
3. O=C(O)CCCc1c[nH]c2ccccc12 [3-indolebutyric-acid]
4. O=C(Nc1ccc(O)cc1)c1ccccc1O [N-salicoylaminophenol]
5. CNC(=O)[C@@H](Cc1ccccc1)N(C)C(=O)[C@@H](Cc1ccc2ccccc2c1)N(C)C(=O)/C=C/CC(C)(C)N [tabimorelin]

a:
[0.61, -0.21, -1.26, 2.05, -0.49]
